Data provenance: patent US20230233569A1

# assayedSystem: NRAS Q61K (Homo sapiens, UniProt P01111+P62937, Q61K)
# Sequence (P01111 whole entry Q61K): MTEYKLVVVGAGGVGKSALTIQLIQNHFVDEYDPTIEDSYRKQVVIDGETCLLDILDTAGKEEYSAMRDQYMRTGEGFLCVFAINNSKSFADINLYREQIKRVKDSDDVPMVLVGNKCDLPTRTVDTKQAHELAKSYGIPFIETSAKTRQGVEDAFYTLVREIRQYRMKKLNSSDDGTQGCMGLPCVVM
# Sequence (P62937 whole entry): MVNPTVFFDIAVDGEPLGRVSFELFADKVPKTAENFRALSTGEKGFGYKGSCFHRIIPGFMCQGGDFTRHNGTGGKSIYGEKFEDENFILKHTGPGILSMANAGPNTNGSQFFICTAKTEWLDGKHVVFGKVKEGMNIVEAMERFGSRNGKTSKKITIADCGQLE
# assayComment: Disruption of BRAF RBD interaction with Ras (FRET / MOA assay, with Cyclophilin A)
# Type: biochemical
# recordedConditions: NRAS Q61K; read-out: NRAS Q61K FRET data IC50
# Description: Disruption of B-Raf Ras-Binding Domain (BRAF^RBD) Interaction with K-Ras by Compounds of the Invention (Also Called a FRET Assay or an MOA Assay) Note—The following protocol describes a procedure for monitoring disruption of K-Ras G12C (GMP-PNP) binding to BRAF^RBD by a compound of the invention. This protocol may also be executed substituting other Ras proteins or nucleotides. […]
outcomeMeasure: IC50

Record excerpt, results attached:
Query: Look at this compound and give its reported IC50. CCn1c(-c2cccnc2[C@H](C)OC)c2c3cc(ccc31)-c1csc(n1)C[C@H](NC(=O)[C@H](C(C)C)N(C)C(=O)N(C)C1(COC)COC1)C(=O)N1CCC[C@H](N1)C(=O)OCC(C)(C)C2
Response: 100 to 1000 nM

Query: Look at this compound and give its reported IC50. C=CC(=O)N1CC[C@H](C(=O)N(C)[C@H](C(=O)N[C@H]2Cc3cc(O)cc(c3)-c3cnc4c(c3)c(c(-c3ccccc3CCOC)n4CC)CC(C)(C)COC(=O)[C@@H]3CCCN(N3)C2=O)C(C)C)C1
Response: 1000 to 10000 nM

Query: Look at this compound and give its reported IC50. CCn1c(-c2cccnc2[C@H](C)OC)c2c3cc(ccc31)-c1csc(n1)C[C@H](NC(=O)[C@H](C(C)C)N(C)C(=O)N1CCCC13CCOCC3)C(=O)N1CCC[C@H](N1)C(=O)OCC(C)(C)C2 (atropisomer, axis not shown)
Response: 10 to 100 nM

Query: Look at this compound and give its reported IC50. CCn1c(-c2cc(N3CCN(C)CC3)cnc2[C@H](C)OC)c2c3cc(ccc31)-c1csc(n1)C[C@H](NC(C)=O)C(=O)N1CCC[C@H](N1)C(=O)OCC(C)(C)C2 (atropisomer, axis not shown) [Example A340]
Response: > 10000 nM

Query: Look at this compound and give its reported IC50. CCn1c(-c2cccnc2[C@H](C)OC)c2c3cc(ccc31)-c1cccc(c1)C[C@H](NC(=O)[C@H](C(C)C)N1CC[C@]3(CCN(C(=O)C#C[C@@H]4COCCN4C4COC4)C3)C1=O)C(=O)N1CCC[C@H](N1)C(=O)OCC(C)(C)C2
Response: > 10000 nM

Query: Look at this compound and give its reported IC50. CCn1c(-c2cccnc2[C@H](C)OC)c2c3cc(ccc31)-c1cc(O)cc(c1)C[C@H](NC(=O)[C@H](C(C)C)N(C)C(=O)C1CCc3ccccc3N1)C(=O)N1CCC[C@H](N1)C(=O)OCC(C)(C)C2 (stereo partly shown)
Response: 100 to 1000 nM

Query: Look at this compound and give its reported IC50. CCn1c(-c2cccnc2[C@H](C)OC)c2c3cc(ccc31)-c1csc(n1)C[C@H](NC(=O)[C@H](C(C)C)N(C)C(=O)N(C)C1CN(C(=O)/C=C/C(C)(C)O)C1)C(=O)N1CCC[C@H](N1)C(=O)OCC(C)(C)C2 (atropisomer, axis not shown)
Response: 10 to 100 nM

Query: Look at this compound and give its reported IC50. CCn1c(-c2cc(N3CCN(C)CC3)cnc2[C@H](C)OC)c2c3cc(ccc31)-c1csc(n1)C[C@H](NC(=O)[C@H](C(C)C)N(C)C(=O)N(C)C)C(=O)N1CCC[C@H](N1)C(=O)OCC(C)(C)C2 (atropisomer, axis not shown)
Response: 10 to 100 nM

Query: Look at this compound and give its reported IC50. CCn1c(-c2cccnc2[C@H](C)OC)c2c3cc(ccc31)-c1csc(n1)C[C@H](NC(=O)[C@H](C(C)C)N(C)C(=O)N1CCC13CCN(C)CC3)C(=O)N1CCC[C@H](N1)C(=O)OCC(C)(C)C2
Response: 100 to 1000 nM

Query: Look at this compound and give its reported IC50. CCn1c(-c2cccnc2[C@H](C)OC)c2c3cc(ccc31)-c1csc(n1)C[C@H](NC(=O)[C@H](C(C)C)N(C)C(=O)N1CC(CN(C)C)(OC)C1)C(=O)N1CCC[C@H](N1)C(=O)OCC(C)(C)C2 (atropisomer, axis not shown)
Response: 1000 to 10000 nM

Next:
Query: Look at this compound and give its reported IC50. CCn1c(-c2cccnc2[C@H](C)OC)c2c3cc(ccc31)-c1csc(n1)C[C@H](NC(=O)[C@H](C(C)C)N(C)C(=O)N1CC[C@@H](N(C)C)C1)C(=O)N1CCC[C@H](N1)C(=O)OCC(C)(C)C2 (atropisomer, axis not shown)
Response: 10 to 100 nM

Query: Look at this compound and give its reported IC50. CCn1c(-c2cccnc2[C@H](C)OC)c2c3cc(ccc31)-c1cc(O)cc(c1)C[C@H](NC(=O)[C@H](C(C)C)N(C)C(=O)[C@@H]1CCN[C@@H]1c1ccccc1)C(=O)N1CCC[C@H](N1)C(=O)OCC(C)(C)C2 (atropisomer, axis not shown)
Response: 100 to 1000 nM

Query: Look at this compound and give its reported IC50. CCn1c(-c2cccnc2[C@H](C)OC)c2c3cc(ccc31)-c1csc(n1)C[C@H](NC(=O)[C@H](C(C)C)N(C)C(=O)N1CC[C@]13CCCN(C)C3)C(=O)N1CCC[C@H](N1)C(=O)OCC(C)(C)C2
Response: 1000 to 10000 nM

Query: Look at this compound and give its reported IC50. CCn1c(-c2cccnc2[C@H](C)OC)c2c3cc(ccc31)-c1cc(O)cc(c1)C[C@H](NC(=O)[C@H](C(C)C)N(C)C(=O)[C@H]1C[C@@H]1C)C(=O)N1CCC[C@H](N1)C(=O)OCC(C)(C)C2
Response: 100 to 1000 nM

Query: Look at this compound and give its reported IC50. CCn1c(-c2cccnc2[C@H](C)OC)c2c3cc(ccc31)-c1csc(n1)C[C@H](NC(=O)[C@H](C(C)C)N(C)C(=O)N1CCCC13COC3)C(=O)N1CCC[C@H](N1)C(=O)OCC(C)(C)C2 (atropisomer, axis not shown)
Response: 10 to 100 nM

Query: Look at this compound and give its reported IC50. C=CC(=O)N1CCO[C@@H]2CCN(C(=O)N(C)[C@H](C(=O)N[C@H]3Cc4nc(cs4)-c4ccc5c(c4)c(c(-c4cccnc4[C@H](C)OC)n5CC)CC(C)(C)COC(=O)C4CCCN(N4)C3=O)C(C)C)CC21 (stereo partly shown)
Response: 10 to 100 nM
